Consider the following molecules; for each one, report its EC150 (compound concentration showing 150% relative to the control (100%)).
Target: Human AMPK α2β2γ1 (Homo sapiens, UniProt O43741+P54646)
Construct: The full length cDNAs of human AMPK β2 (NM_005399.3) and human AMPK α2 (NM_006252.3) were inserted; the full length cDNA of human AMPK γ1 (NM_002733.3) had been inserted into pET28b(+); 6xHis (N); made in house; host or cells: Escherichia coli BL21 CodonPlus (DE3)-RIL (AMPK); BL21 Star (DE3) (CaMKKβ)
Sequence (P54646 whole entry, one chain of several): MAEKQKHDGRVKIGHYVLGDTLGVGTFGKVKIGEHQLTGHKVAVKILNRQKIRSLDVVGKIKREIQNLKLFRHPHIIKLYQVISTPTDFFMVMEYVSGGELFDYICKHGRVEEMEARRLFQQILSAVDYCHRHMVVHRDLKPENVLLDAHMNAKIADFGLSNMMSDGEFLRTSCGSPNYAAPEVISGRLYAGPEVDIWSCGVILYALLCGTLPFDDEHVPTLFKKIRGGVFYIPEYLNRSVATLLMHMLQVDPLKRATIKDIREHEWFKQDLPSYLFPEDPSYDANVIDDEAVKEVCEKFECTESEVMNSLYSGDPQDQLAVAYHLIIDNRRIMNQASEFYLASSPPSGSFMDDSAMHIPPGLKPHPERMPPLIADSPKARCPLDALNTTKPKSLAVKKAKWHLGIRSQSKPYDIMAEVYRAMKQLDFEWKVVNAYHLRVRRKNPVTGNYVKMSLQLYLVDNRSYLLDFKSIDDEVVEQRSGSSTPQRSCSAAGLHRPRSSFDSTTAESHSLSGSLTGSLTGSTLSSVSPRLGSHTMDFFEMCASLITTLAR
Sequence (O43741 whole entry, one chain of several): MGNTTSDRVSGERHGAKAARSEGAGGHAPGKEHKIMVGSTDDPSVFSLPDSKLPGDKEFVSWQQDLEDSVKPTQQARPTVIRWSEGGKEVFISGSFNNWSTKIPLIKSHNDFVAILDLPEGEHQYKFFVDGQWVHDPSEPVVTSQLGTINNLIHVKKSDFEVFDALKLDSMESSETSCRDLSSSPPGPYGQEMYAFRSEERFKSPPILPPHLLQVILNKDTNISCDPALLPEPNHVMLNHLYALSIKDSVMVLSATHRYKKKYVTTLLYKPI
Experiment: Evaluation of AMPK activator, Test Example 2 (CaMKK2-phosphorylated enzyme, mobility-shift kinase assay)
Assay type: biochemical
Settings: human AMPK α2β2γ1 phosphorylated by CaMKK2, 25° C., 2 hours
Answer with the number, then the unit.

Consider the worked cases shown below.
[[record]]
molecule = "CC(C)(C(=O)O)C1CCC(Oc2nc3nc(-c4ccc(C5(CO)CC5)cc4)c(Cl)cc3[nH]2)CC1 (stereo not shown) [Compound I-3-37]"
reported = "5 nM"

[[record]]
molecule = "CC(C)(C(=O)O)[C@H]1CC[C@H](Oc2nc3nc(-c4c(F)cc(N5CCOCC5)cc4F)ccc3[nH]2)CC1 [Compound I-3-40]"
reported = "69 nM"

[[record]]
molecule = "CC(C)(C(=O)O)[C@]1(F)CC[C@@H](Oc2nc3nc(-c4ccc(N5CCOCC5)cc4)c(Cl)cc3[nH]2)CC1 [Compound I-3-99]"
reported = "15 nM"


Turning to the following molecule.
Tell me the measured EC150 (compound concentration showing 150% relative to the control (100%)) of CN(C)C(=O)[C@]1(O)CC[C@@H](Oc2nc3nc(-c4ccc(C5=CCC(C(=O)O)CC5)cc4)c(Cl)cc3[nH]2)CC1 (stereo partly shown) [Compound I-3-54] , please.
2.2 nM

###

Target: human AMPK α1β1γ1 enzyme (Homo sapiens, UniProt Q13131+Q9Y478)
Construct: purchased Carna Biosciences, Inc
Sequence (Q13131 10-559 limits assumed): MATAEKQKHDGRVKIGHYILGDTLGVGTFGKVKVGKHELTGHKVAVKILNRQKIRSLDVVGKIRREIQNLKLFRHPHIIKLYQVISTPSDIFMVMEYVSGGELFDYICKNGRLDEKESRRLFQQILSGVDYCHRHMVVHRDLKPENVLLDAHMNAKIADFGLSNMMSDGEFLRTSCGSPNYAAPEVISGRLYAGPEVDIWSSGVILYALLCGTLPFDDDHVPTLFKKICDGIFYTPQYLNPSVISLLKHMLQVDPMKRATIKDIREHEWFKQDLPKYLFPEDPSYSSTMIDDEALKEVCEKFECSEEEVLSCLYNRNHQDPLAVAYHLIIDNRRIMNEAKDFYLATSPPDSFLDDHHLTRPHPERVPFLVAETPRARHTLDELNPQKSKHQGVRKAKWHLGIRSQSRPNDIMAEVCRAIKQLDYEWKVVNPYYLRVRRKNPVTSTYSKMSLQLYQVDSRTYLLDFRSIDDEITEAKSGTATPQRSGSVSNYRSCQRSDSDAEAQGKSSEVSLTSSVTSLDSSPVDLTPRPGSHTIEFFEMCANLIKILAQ
Sequence (Q9Y478 whole entry): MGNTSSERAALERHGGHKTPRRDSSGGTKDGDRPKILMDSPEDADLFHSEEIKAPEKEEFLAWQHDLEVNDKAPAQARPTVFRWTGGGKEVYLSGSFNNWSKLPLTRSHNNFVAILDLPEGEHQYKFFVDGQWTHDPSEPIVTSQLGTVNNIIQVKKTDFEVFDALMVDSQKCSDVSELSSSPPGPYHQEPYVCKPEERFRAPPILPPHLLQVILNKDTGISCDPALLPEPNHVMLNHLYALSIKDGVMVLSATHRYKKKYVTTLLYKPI
Sequence (P54619 whole entry partner): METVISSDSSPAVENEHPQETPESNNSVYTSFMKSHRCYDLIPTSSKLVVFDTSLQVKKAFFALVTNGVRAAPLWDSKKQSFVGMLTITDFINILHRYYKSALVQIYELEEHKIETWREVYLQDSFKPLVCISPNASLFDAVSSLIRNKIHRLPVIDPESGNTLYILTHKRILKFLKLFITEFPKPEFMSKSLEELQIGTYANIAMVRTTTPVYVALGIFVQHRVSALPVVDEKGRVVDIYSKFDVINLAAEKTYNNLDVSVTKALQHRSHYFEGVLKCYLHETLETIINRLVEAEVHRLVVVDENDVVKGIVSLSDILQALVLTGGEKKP
Assay: Evaluation of AMPK activator, Test Example 1 (mobility-shift kinase assay, FL-Peptide 7)
Assay type: biochemical
Settings: human AMPK α1β1γ1, 25° C., 2 hours, 0.2 mM ATP final
So basically: EC150 (compound concentration showing 150% relative to the control (100%)) at 10 nM or higher? That is 1 (yes). Lower than 10 nM? That is 0 (no).

Record excerpt, results attached:
[[record]]
compound = "O=C(O)[C@H]1CC[C@H](Oc2nc3nc(-c4ccc(-c5ccccc5O)cc4)c(Cl)cc3[nH]2)CC1"
test_target = "human AMPK α1β1γ1 enzyme (Homo sapiens, UniProt Q13131+Q9Y478)"
label_value = "1 (yes)"

[[record]]
compound = "CC(C)(C(=O)O)[C@H]1CC[C@H](Oc2nc3nc(-c4ccc(-c5ccccc5O)cc4)c(Cl)cc3[nH]2)CC1"
test_target = "human AMPK α1β1γ1 enzyme (Homo sapiens, UniProt Q13131+Q9Y478)"
label_value = "0 (no)"

[[record]]
compound = "CC(=O)N1CC=C(c2ccc(-c3nc4nc(OC5CCC(C(C)(C)CO)CC5)[nH]c4cc3Cl)cc2)CC1 (centres unmarked)"
test_target = "human AMPK α1β1γ1 enzyme (Homo sapiens, UniProt Q13131+Q9Y478)"
label_value = "1 (yes)"

[[record]]
compound = "CC(Oc1nc2nc(-c3ccc(C4=CCC(C(=O)O)CC4)cc3)c(Cl)cc2[nH]1)c1ccccn1 (centres unmarked)"
test_target = "human AMPK α1β1γ1 enzyme (Homo sapiens, UniProt Q13131+Q9Y478)"
label_value = "1 (yes)"

[[record]]
compound = "O=C(O)C1([C@]2(O)CC[C@@H](Oc3nc4nc(-c5ccc(N6CCOCC6)cc5)c(Cl)cc4[nH]3)CC2)CCC1"
test_target = "human AMPK α1β1γ1 enzyme (Homo sapiens, UniProt Q13131+Q9Y478)"
label_value = "1 (yes)"

[[record]]
compound = "O=C(O)C1CCC(Oc2nc3nc(-c4ccc(N5CCOCC5)cc4)c(Cl)cc3[nH]2)C1 (centres unmarked)"
test_target = "human AMPK α1β1γ1 enzyme (Homo sapiens, UniProt Q13131+Q9Y478)"
label_value = "1 (yes)"


Given CC(C)(C(=O)O)C1CCC(Oc2nc3nc(-c4ccc(C5=CCOCC5)cc4)c(Cl)cc3[nH]2)CC1 (centres unmarked) , state whether its EC150 (compound concentration showing 150% relative to the control (100%)) is at least 10 nM.
0 (no)

Answer whether EC150 (compound concentration showing 150% relative to the control (100%)) of `O=C(O)CSc1nc2nc(-c3ccc(N4CCOCC4)cc3)c(Cl)cc2[nH]1` is greater than or equal to 10 nM.
1 (yes)

Has CC(C)(C(=O)O)C1CCC(Oc2nc3nc(-c4ccc(N5CCCC5)cc4)c(Cl)cc3[nH]2)CC1 (centres unmarked) a recorded EC150 (compound concentration showing 150% relative to the control (100%)) greater than or equal to 10 nM?
0 (no)

Does the reported EC150 (compound concentration showing 150% relative to the control (100%)) for CC(C)(C(=O)O)C1CCC(Oc2nc3nc(-c4ccc(C5(CO)CC5)cc4)c(Cl)cc3[nH]2)CC1 (centres unmarked) fall at or above the 10 nM mark?
0 (no)

# bool: EC150 (compound concentration showing 150% relative to the control (100%)) of `O=C(COc1nc2nc(-c3ccc(N4CCOCC4)cc3)c(Cl)cc2[nH]1)N1CCC(F)(F)CC1` >= 10 nM
1 (yes)

Entry `NC(=O)[C@H]1CC[C@H](Oc2nc3nc(-c4ccc(N5CCOCC5)cc4)c(Cl)cc3[nH]2)CC1` : is its EC150 (compound concentration showing 150% relative to the control (100%)) no less than 10 nM?
1 (yes)

I'd appreciate it if you could say whether `CC(C)(C(=O)O)[C@H]1CC[C@H](Oc2nc3nc(-c4ccc(-c5ccc(C(N)=O)cc5)cc4)c(Cl)cc3[nH]2)CC1` has EC150 (compound concentration showing 150% relative to the control (100%)) at least equal to 10 nM.
0 (no)

Identify whether the reported EC150 (compound concentration showing 150% relative to the control (100%)) of the following compound is 10 nM or greater: CCC(Oc1nc2nc(-c3ccc(N4CCCC4)cc3)c(Cl)cc2[nH]1)c1cc(O)no1 (centres unmarked)
1 (yes)

###

Please respond with reported EC150 (compound concentration showing 150% relative to the control (100%)) for every item in the list.
Molecular target: human AMPK α1β1γ1 enzyme (Homo sapiens, UniProt Q13131+Q9Y478)
Construct: purchased Carna Biosciences, Inc
Assay: Evaluation of AMPK activator, Test Example 1 (mobility-shift kinase assay, FL-Peptide 7)
Type: biochemical
Conditions: human AMPK α1β1γ1, 25° C., 2 hours, 0.2 mM ATP final
Protocol: The obtained liquid was left to stand for 10 minutes. The obtained liquid was allowed to react at 25° C. for 2 hours, and 10 μl of 20 mM EDTA was then added thereto to stop the reaction. To detect phosphorylated fluorescent substrates, the reaction liquid was applied to a measuring device, LabChip EZ Reader II manufactured by Caliper Life Science, Inc., for detecting fluorescence by using differences in mobility due to differences in charge. […]
Answers are plain numbers, in nM.

A selection of reference data follows.
[[record]]
compound = "CC(Oc1nc2nc(-c3ccc(N4CCCC4)cc3)c(Cl)cc2[nH]1)c1noc(=O)[nH]1 (centres unmarked)"
result_units = "nM"
reported = 49

[[record]]
compound = "CC(C)(C(=O)O)[C@]1(O)CC[C@@H](Oc2nc3nc(-c4c(F)cc(N5CCOCC5)cc4F)ccc3[nH]2)CC1"
result_units = "nM"
reported = 22


For every item in the list below, what is its measured EC150 (compound concentration showing 150% relative to the control (100%))?
1. Clc1cc2[nH]c(OC3CCOCC3)nc2nc1-c1ccc(N2CCOCC2)cc1
2. NC(=O)c1ccc(-c2ccc(-c3nc4nc(O[C@H]5CC[C@H](C(=O)O)CC5)[nH]c4cc3Cl)cc2)cc1
3. O=C(O)[C@H]1CC[C@H](Oc2nc3nc(-c4ccc(-c5ccccc5)cc4)c(Cl)cc3[nH]2)CC1
4. O=C(O)[C@]1(O)CC[C@@H](Oc2nc3nc(-c4ccc(N5CCOCC5)cc4)c(Cl)cc3[nH]2)CC1
5. O=C(c1ccc(-c2ccc(-c3nc4nc(O[C@H]5CC[C@H](C(=O)O)CC5)[nH]c4cc3Cl)cc2)cc1)N1CCC(O)CC1
6. CC(C)(C(=O)O)[C@]1(O)CC[C@@H](Oc2nc3nc(-c4ccc(N5CCOCC5)cc4)c(Cl)cc3[nH]2)CC1 [Compound I-3-24]
7. CN(C)C(=O)[C@]1(O)CC[C@@H](Oc2nc3nc(-c4ccc(C5=CCC(C(=O)O)CC5)cc4)c(Cl)cc3[nH]2)CC1 (some centres unmarked)

1. 21
2. 28
3. 650
4. 47
5. 21
6. 0.79
7. 270

Reference source: patent US10093670B2
